System: hiPSC-derived cardiomyocytes
Assay: KIC spontaneous calcium transients in hiPSC-derived cardiomyocytes
Format: cell-based, human
Settings: Homo sapiens, Cardiomyocyte, read-out: EC50 Decay
Would you kindly list log10 EC50 for each of these compounds?
Values below are the log10 of the recorded EC50, with µM as the unit.

log10 EC50 reported for this compound CC(C)NCC(O)c1ccc(NS(C)(=O)=O)cc1 (stereo not shown) : 1.93

The compound listed as O=C(NCC1CCCCN1)c1cc(OCC(F)(F)F)ccc1OCC(F)(F)F (stereo not shown) [Flecainide] shows log10 EC50 equal to 0.00

Value of log10 EC50 reported for the compound O=C(Nc1cc(C(F)(F)F)ccc1O)Nc1cc(C(F)(F)F)ccc1O is 0.40

get_value(item= CC1(C)Oc2ccc(C#N)cc2[C@@H](N2CCCC2=O)[C@@H]1O , readout=log10 EC50) returns 0.72

The recorded log10 EC50 for CN(CCOc1ccc(NS(C)(=O)=O)cc1)CCc1ccc(NS(C)(=O)=O)cc1 [Dofetilide] is -3.12

log10 EC50 measured on COc1cc(N)c(Cl)cc1C(=O)NC1CCN(CCCOc2ccc(F)cc2)CC1OC (stereo not shown) [Cisapride] = -0.83

Kindly note the recorded log10 EC50 for COc1ccc(CCN(C)CCCC(C#N)(c2ccc(OC)c(OC)c2)C(C)C)cc1OC (stereo not shown) , which is -0.77

---

System: hiPSC-derived cardiomyocytes
Assay: KIC spontaneous calcium transients in hiPSC-derived cardiomyocytes
Type: cell-based, human
Conditions: N.S., not significant vs vehicle by ANOVA/Dunnett
experimental_readout: EC50 T75-25 (in words)

compound	target	assay_result
CCOc1cc(N)c(Cl)cc1C(=O)NCC1CN(Cc2ccc(F)cc2)CCO1 (stereo not shown) [Mosapride]	hiPSC-derived cardiomyocytes	N.S.
COc1cc(N)c(Cl)cc1C(=O)NC1CCN(CCCOc2ccc(F)cc2)CC1OC (stereo not shown) [Cisapride]	hiPSC-derived cardiomyocytes	N.S
CC(C)NCC(O)c1ccc(NS(C)(=O)=O)cc1 (stereo not shown) [Sotalol]	hiPSC-derived cardiomyocytes	None
CC(=O)Oc1ccccc1C(=O)O [Aspirin]	hiPSC-derived cardiomyocytes	N.S.

---

System: hiPSC-derived cardiomyocytes
Experiment: KIC spontaneous calcium transients in hiPSC-derived cardiomyocytes
Type: cell-based, human
Details: N.S., not significant vs vehicle by ANOVA/Dunnett
experimental_readout: EC50 FWHM (in words)

molecule	assay_result
O=C(NCC1CCCCN1)c1cc(OCC(F)(F)F)ccc1OCC(F)(F)F (stereo not shown) [Flecainide]	N.S.
CC(=O)Oc1ccccc1C(=O)O	N.S.
CN(CCOc1ccc(NS(C)(=O)=O)cc1)CCc1ccc(NS(C)(=O)=O)cc1 [Dofetilide]	N.S
CCOc1cc(N)c(Cl)cc1C(=O)NCC1CN(Cc2ccc(F)cc2)CCO1 (stereo not shown) [Mosapride]	N.S.

---

Could you please report measured EC50 for the items listed next?
Test system: hiPSC-derived cardiomyocytes
Assay: KIC spontaneous calcium transients in hiPSC-derived cardiomyocytes
Assay type: cell-based, human
Conditions: read-out: EC50 FWHM; spontaneous calcium transients, hiPSC-CMs
Kindly provide the numeric value in nM only, without the unit symbol.

EC50 measured on Cc1cccc(CCN2CCC(C(=O)c3ccc(NS(C)(=O)=O)cc3)CC2)n1 = 44.1

Documented EC50 of COC(=O)C1=C(C)NC(C)=C([N+](=O)[O-])C1c1ccccc1C(F)(F)F (centres unmarked) : 11

Data provenance is paper PMC3667588.
